Molecular target: PIK3CB;PIK3CG;PIK3CD;PIK3CA (human)
Assay: Inhibition of PIK3CA/PIK3CB/PIK3CD/PIK3CG Kinase Activity
Label rule met when IC50 is strictly below 0.1 µM; otherwise label rule not met.

Query: Is it true that IC50 reported for "COc1ccc(CCCO)c(Nc2nc3ccccc3nc2NS(=O)(=O)c2ccc(NC(=O)CN(C)C)cc2)c1" is less than 0.1 µM?
Result: rule met

Query: Is it true that IC50 reported for "COc1cc(Nc2nc3ccccc3nc2NS(=O)(=O)c2cccnc2)cc(C(=O)N2CCOCC2)c1" is less than 0.1 µM?
Result: rule not met

Query: Is it true that IC50 reported for "COc1ccc(CO)c(Nc2nc3ccccc3nc2NS(=O)(=O)c2cn(C)cn2)c1" is less than 0.1 µM?
Result: rule not met

Query: Is it true that IC50 reported for "COc1cc(Nc2nc3ccccc3nc2NS(=O)(=O)c2cccnc2)cc(C(=O)N2CCN(C)CC2)c1" is less than 0.1 µM?
Result: rule not met

Query: Is it true that IC50 reported for "COc1cc(Nc2nc3ccccc3nc2NS(C)(=O)=O)cc(C(=O)N2CCOCC2)c1" is less than 0.1 µM?
Result: rule not met

Query: Is it true that IC50 reported for "COc1ccc(CCCO)c(Nc2nc3ccccc3nc2NS(=O)(=O)CCCS(C)(=O)=O)c1" is less than 0.1 µM?
Result: rule not met

Query: Is it true that IC50 reported for "COc1ccc(CCO)c(Nc2nc3ccccc3nc2NS(=O)(=O)c2ccc(C(=O)N(C)C)cc2)c1" is less than 0.1 µM?
Result: rule not met

Query: Is it true that IC50 reported for "COc1ccc(CC2CCN(C)CC2)c(Nc2nc3ccccc3nc2NS(=O)(=O)c2cccnc2)c1" is less than 0.1 µM?
Result: rule met

---

Molecular target: PIK3CB;PIK3CG;PIK3CD;PIK3CA (human)
Experiment: Inhibition of PIK3CA/PIK3CB/PIK3CD/PIK3CG Kinase Activity
Each record's class is read off its IC50 using these ranges: L (below 30 nM), M (30 nM to below 80 nM), H (80 nM or more)

Query: Class label required: "COc1ccc(CCCO)c(Nc2nc3ccccc3nc2NS(=O)(=O)c2cn(C)c(CO)n2)c1"
Result: H

Query: Class label required: "COc1ccc(CCS(C)(=O)=O)c(Nc2nc3ccccc3nc2NS(=O)(=O)CCCSC)c1"
Result: H

Query: Class label required: COc1ccc(CC2CCC(O)CC2)c(Nc2nc3ccccc3nc2NS(=O)(=O)c2cn(C)cn2)c1 (centres undefined)
Result: L

Query: Class label required: "CCS(=O)(=O)Nc1nc2ccccc2nc1Nc1cc(OC)ccc1CCO"
Result: M

Query: Class label required: "CCCCO.COCCc1ccc(OC)cc1Nc1nc2ccccc2nc1NS(=O)(=O)c1cn(C)cn1"
Result: H

Query: Class label required: "COc1ccc(CCO)c(Nc2nc3ccccc3nc2NS(=O)(=O)c2ccc(CN3CCC(F)CC3)cc2)c1"
Result: M

Query: Class label required: "COc1ccc(CCO)c(Nc2nc3ccccc3nc2NS(=O)(=O)CCCSC)c1"
Result: M

Query: Class label required: "COc1ccc(CCO)c(Nc2nc3ccccc3nc2NS(=O)(=O)c2ccc(C#N)cc2)c1"
Result: L

Query: Class label required: "COc1ccc(CC2CCOCC2)c(Nc2nc3ccccc3nc2NS(=O)(=O)c2cccnc2)c1"
Result: L

---

Biological target: PIK3CB;PIK3CG;PIK3CD;PIK3CA (human) (UniProt P48736)
Experiment: Inhibition of PIK3CA/PIK3CB/PIK3CD/PIK3CG Kinase Activity
pIC50: −log10 of the molar value.
Where pIC50 equals or exceeds 7, the correct label is Criterion met; where it does not, the label is Criterion not met.

Query: Test whether the compound "COc1ccc(CCO)c(Nc2nc3ccccc3nc2NS(=O)(=O)c2ccc(F)cc2)c1" records pIC50 of 7 or higher.
Result: Criterion met

Query: Test whether the compound "COc1ccc(C(CO)CO)c(Nc2nc3ccccc3nc2NS(=O)(=O)c2cn(C)cn2)c1" records pIC50 of 7 or higher.
Result: Criterion not met

Query: Test whether the compound "COc1ccc(CC2CCCCC2)c(Nc2nc3ccccc3nc2NS(=O)(=O)c2cn(C)cn2)c1" records pIC50 of 7 or higher.
Result: Criterion not met

Query: Test whether the compound "COc1ccc(CCO)c(Nc2nc3ccccc3nc2NS(=O)(=O)c2ccc(CN(C)C)cc2)c1" records pIC50 of 7 or higher.
Result: Criterion met

Query: Test whether the compound "CCS(=O)(=O)Nc1nc2ccccc2nc1Nc1cc(OC)ccc1CCCO" records pIC50 of 7 or higher.
Result: Criterion met

Query: Test whether the compound "CC#N.COc1ccc(CCCO)c(Nc2nc3ccccc3nc2NS(=O)(=O)c2cn(C)cn2)c1" records pIC50 of 7 or higher.
Result: Criterion met

Query: Test whether the compound "COc1ccc(CCCO)c(Nc2nc3ccccc3nc2NS(=O)(=O)C2CCNCC2)c1" records pIC50 of 7 or higher.
Result: Criterion met

Query: Test whether the compound "COc1ccc(CCCO)c(Nc2nc3ccccc3nc2NS(=O)(=O)c2cccc(NC(=O)COCc3ccccc3)c2)c1" records pIC50 of 7 or higher.
Result: Criterion not met

Query: Test whether the compound "COc1ccc(CC2CCS(=O)(=O)CC2)c(Nc2nc3ccccc3nc2NS(=O)(=O)c2ccc(CN(C)C)cc2)c1" records pIC50 of 7 or higher.
Result: Criterion met

Query: Test whether the compound "COc1ccc(CCCO)c(Nc2nc3ccccc3nc2NS(=O)(=O)C2CCN(C(=O)OCc3ccccc3)CC2)c1" records pIC50 of 7 or higher.
Result: Criterion not met

Query: Test whether the compound "CCCS(=O)(=O)Nc1nc2ccccc2nc1Nc1cc(OC)ccc1CCO" records pIC50 of 7 or higher.
Result: Criterion met

Query: Test whether the compound "COc1ccc(CCCS(C)(=O)=O)c(Nc2nc3ccccc3nc2NS(=O)(=O)c2cn(C)cn2)c1" records pIC50 of 7 or higher.
Result: Criterion met

Query: Test whether the compound "COc1ccc(CCCO)c(Nc2nc3ccccc3nc2NS(=O)(=O)c2cccc(NC(=O)CO)c2)c1" records pIC50 of 7 or higher.
Result: Criterion met

Query: Test whether the compound "COCCNC(=O)c1cc(Nc2nc3ccccc3nc2NS(=O)(=O)c2cn(C)cn2)cc(OC)c1" records pIC50 of 7 or higher.
Result: Criterion not met

Query: Test whether the compound "COc1ccc(CC2CCCCC2)c(Nc2nc3ccccc3nc2NS(=O)(=O)c2cccnc2)c1" records pIC50 of 7 or higher.
Result: Criterion not met

Query: Test whether the compound "COc1ccc(CC2CC(C)(C)N(C)C(C)(C)C2)c(Nc2nc3ccccc3nc2NS(=O)(=O)c2cn(C)cn2)c1" records pIC50 of 7 or higher.
Result: Criterion not met

Query: Test whether the compound "COc1ccc(CC2CCCC2)c(Nc2nc3ccccc3nc2NS(=O)(=O)c2cn(C)cn2)c1" records pIC50 of 7 or higher.
Result: Criterion not met

Query: Test whether the compound "COc1ccc(CCS(C)(=O)=O)c(Nc2nc3ccccc3nc2NS(C)(=O)=O)c1" records pIC50 of 7 or higher.
Result: Criterion not met

Query: Test whether the compound "COc1ccc(CCO)c(Nc2nc3ccccc3nc2NS(=O)(=O)c2ccc(CCCO)cc2)c1" records pIC50 of 7 or higher.
Result: Criterion met

---

Target: PIK3CB;PIK3CG;PIK3CD;PIK3CA (human) (UniProt P48736)
Assay: Inhibition of PIK3CA/PIK3CB/PIK3CD/PIK3CG Kinase Activity
Task for the reader: assign each of the following compounds its reported IC50.
Respond with the bare value in nM.

Query: Which IC50 value belongs to "COc1ccc(CC2CCN(C(C)=O)CC2)c(Nc2nc3ccccc3nc2NS(C)(=O)=O)c1" ?
Result: 170

Query: Which IC50 value belongs to "COc1cc(Nc2nc3ccccc3nc2NS(=O)(=O)c2cn(C)cn2)cc(C(=O)N(C)C)c1" ?
Result: 760

Query: Which IC50 value belongs to "COc1ccc(CCO)c(Nc2nc3ccccc3nc2NS(=O)(=O)CCCS(C)(=O)=O)c1" ?
Result: 120

Query: Which IC50 value belongs to "COC(=O)c1ccc(OC)cc1Nc1nc2ccccc2nc1NS(C)(=O)=O" ?
Result: 1650

Query: Which IC50 value belongs to "COc1ccc(CC2CCOCC2)c(Nc2nc3ccccc3nc2NS(=O)(=O)c2ccc(F)cc2)c1" ?
Result: 150

Query: Which IC50 value belongs to "COc1ccc(CC2CCSCC2)c(Nc2nc3ccccc3nc2NS(=O)(=O)c2ccc(CN(C)C)cc2)c1" ?
Result: 35

Query: Which IC50 value belongs to "COc1ccc(CCS(C)(=O)=O)c(Nc2nc3ccccc3nc2NS(=O)(=O)c2cn(C)c(CN(C)C)n2)c1" ?
Result: 87

Query: Which IC50 value belongs to "COc1ccc(CCCN(C)C)c(Nc2nc3ccccc3nc2NS(=O)(=O)c2cn(C)cn2)c1" ?
Result: 11

Query: Which IC50 value belongs to "CCCS(=O)(=O)Nc1nc2ccccc2nc1Nc1cc(OC)ccc1CCCO" ?
Result: 49

Query: Which IC50 value belongs to "COc1ccc(CC2CCN(C(C)=O)CC2)c(Nc2nc3ccccc3nc2NS(=O)(=O)c2cccnc2)c1" ?
Result: 51

Query: Which IC50 value belongs to "COc1ccc(C(=O)O)c(Nc2nc3ccccc3nc2NS(=O)(=O)c2cccnc2)c1" ?
Result: 4680

Query: Which IC50 value belongs to COc1ccc(CC2CCC(O)CC2)c(Nc2nc3ccccc3nc2NS(=O)(=O)c2cccnc2)c1 (centres undefined) ?
Result: 20

Query: Which IC50 value belongs to "COc1ccc(CCO)c(Nc2nc3ccccc3nc2NS(=O)(=O)c2cccnc2)c1" ?
Result: 40

Query: Which IC50 value belongs to "COC(=O)CCc1ccc(S(=O)(=O)Nc2nc3ccccc3nc2Nc2cc(OC)ccc2CCO)cc1" ?
Result: 70

Query: Which IC50 value belongs to COc1ccc(CC2CCC(O)CC2)c(Nc2nc3ccccc3nc2NS(=O)(=O)c2ccc(CN(C)C)cc2)c1 (centres undefined) ?
Result: 26

Query: Which IC50 value belongs to "COCCc1ccc(OC)cc1Nc1nc2ccccc2nc1NS(=O)(=O)c1cn(C)c(CS(C)(=O)=O)n1" ?
Result: 200

Query: Which IC50 value belongs to "COCCc1ccc(OC)cc1Nc1nc2ccccc2nc1NS(=O)(=O)C1CCN(C(C)=O)CC1" ?
Result: 300

Query: Which IC50 value belongs to "COc1ccc(CC2CCN(C)CC2)c(Nc2nc3ccccc3nc2NS(C)(=O)=O)c1" ?
Result: 110

Query: Which IC50 value belongs to "COc1ccc(CCO)c(Nc2nc3ccccc3nc2NS(=O)(=O)c2ccc(NC(=O)CN(C)C)cc2)c1" ?
Result: 27
